Numbers sourced from ChEMBL document CHEMBL5137044.

Assay: Cytotoxicity against human MT4 cells assessed as cell growth inhibition incubated for 5 days by MTT assay
Assay type: toxicity, cell-based
Settings: time 5 day
Measured Property: CC50 at 120 h (µM)
Report the value in µM with no unit label.

COc1cc(OC)cc(C(C#N)c2nc(SC(C)C)[nH]c(=O)c2C)c1 (stereo not drawn) = 41.1

Would you kindly share the measured CC50 at 120 h for Cc1c(C(C#N)c2ccccc2Br)nc(SC(C)C)[nH]c1=O (stereo not drawn) ? 77.6

# iterate: Cc1c(C(C#N)c2cccnc2Cl)nc(SC(C)C)[nH]c1=O (stereo not drawn) 251

# iterate: COc1cc(F)cc(C(C#N)c2nc(SC(C)C)[nH]c(=O)c2C)c1 (stereo not drawn) 161

----------
Assay: Cytotoxicity against human MT4 cells assessed as cell growth inhibition incubated for 5 days by MTT assay
Type: toxicity, cell-based
Details: time 5 day
The entries below are paired with their reported CC50 at 120 h.
Report the value in µM with no unit label.

Would you kindly share the measured CC50 at 120 h for Cc1c(C(C#N)c2ccc(C(C)C)cc2)nc(SC(C)C)[nH]c1=O (stereo unspecified) ? 225

----------
The entries below are paired with their reported Ratio EC50.
Experiment: Fold resistance, ratio of EC50 for antiviral activity against drug-resistant HIV-1 E138K mutant infected in human MT4 cells to EC50 for antiviral activity against […] HIV-1 infected in human MT4 cells
Assay type: functional
Give a plain numeric answer without units written out.

Solved cases (10 shown):
Cc1c(C(C#N)c2ccccc2F)nc(SC(C)C)[nH]c1=O (configuration not stated) = 3
Cc1c(C(C#N)c2ccccn2)nc(SC(C)C)[nH]c1=O (configuration not stated) = 3
Cc1cccc(C(C#N)c2nc(SC(C)C)[nH]c(=O)c2C)c1 (configuration not stated) = 3
Cc1c(C(C#N)c2ccc(Cl)cc2)nc(SC(C)C)[nH]c1=O (configuration not stated) = 3
Cc1cc(C#N)cc(C)c1Oc1nc(Nc2ccc(C#N)cc2)nc(N)c1Br = 3
COc1cc(OC)cc(C(C#N)c2nc(SC(C)C)[nH]c(=O)c2C)c1 (configuration not stated) = 4
Cc1c(C(C#N)c2ccccc2)nc(SC(C)C)[nH]c1=O (configuration not stated) = 2
Cc1c(C(C#N)c2c(Cl)cccc2Cl)nc(SC(C)C)[nH]c1=O (configuration not stated) = 3
Cc1c(C(C#N)c2ccc(Cl)nc2)nc(SC(C)C)[nH]c1=O (configuration not stated) = 1
Cc1c(C(C#N)c2cccc3c2OCO3)nc(SC(C)C)[nH]c1=O (configuration not stated) = 4

Would you kindly share the measured Ratio EC50 for Cc1c(C(C#N)c2ccc(F)cc2)nc(SC(C)C)[nH]c1=O (configuration not stated) ? 3

# iterate: Cc1c(C(C#N)c2ccc(C(F)(F)F)cc2)nc(SC(C)C)[nH]c1=O (configuration not stated) 2

# iterate: COc1cccc(C(C#N)c2nc(SC(C)C)[nH]c(=O)c2C)c1 (configuration not stated) 3

# iterate: Cc1c(C(C#N)c2cc(Cl)cc(C(F)(F)F)c2)nc(SC(C)C)[nH]c1=O (configuration not stated) 3

----------
The entries below are paired with their reported IC50.
Molecular target: Human immunodeficiency virus type 1 reverse transcriptase (Human immunodeficiency virus 1)
Test: Inhibition of recombinant wild-type p66/p51 HIV-1 reverse transcriptase incubated for 40 mins by picogreen dye-based spectrofluorometric analysis
Report the value in nM with no unit label.

Cc1c(C(C#N)c2ccc(C(C)C)cc2)nc(SC(C)C)[nH]c1=O (stereo not given) = 2150
Cc1c(C(C#N)c2ccccc2Br)nc(SC(C)C)[nH]c1=O (stereo not given) = 198
Cc1c(C(C#N)c2cc(C(F)(F)F)cc(C(F)(F)F)c2)nc(SC(C)C)[nH]c1=O (stereo not given) = 55100
Cc1c(C(C#N)c2ccccc2)nc(SC(C)C)[nH]c1=O (stereo not given) = 1510

Would you kindly share the measured IC50 for COc1cc(OC)cc(C(C#N)c2nc(SC(C)C)[nH]c(=O)c2C)c1 (stereo not given) ? 2580
